Target under test: HLA-B*51:01 (human)
Assay procedure: in vitro peptide-MHC affinity measurement
For each entry below, report its log10(IC50) value.
Units before log transform: nM; reported quantity: IC50; transform: log10.

Here is how some binders turned out for log10(IC50).
>>> print(df.to_string())
      binder  observed_measurement
0  VALLVGEKV                  2.16
1  VPPLVPKVL                  1.75
2  IIYPTPKVV                  1.58

Dear colleague, could you send me log10(IC50) for each of the items below? Thanks.
1. DGRLVINRV
2. DAYPQRIKF
3. DAPLNIRSI
4. DGYVVKETI
5. DGLLRVLTV

*A*
1.13
1.49
0.81
1.13
-0.70
